half-life overview
- protocol-summary: Half life in human plasma
- Type: ADME, cell-free
All answers are understood in min, so give the number only.

NCC(=O)N1CCC[C@H]1C(=O)N[C@@H](CCC(=O)O)C(=O)O.O=C(O)C(F)(F)F.O=C(O)C(F)(F)F: 270

Input: Provide one value: measured half-life of "NCCN1CCC[C@H]1C(=O)N[C@@H](CCC(=O)O)C(=O)O.O=C(O)C(F)(F)F.O=C(O)C(F)(F)F"
Output: 708

Input: Provide one value: measured half-life of "NCCN1CCC[C@H]1C(=O)N[C@@H](CCC(=O)O)C(=O)O.O=C(O)C(F)(F)F"
Output: 396

Values were extracted from ChEMBL document CHEMBL4371039.
